Biological target: UniProtKB Q15761
Experiment: Inhibitory concentration of total specific binding of [125I]- -PYY to HEK 293 cells transfected with the Human NPY-Y5 cDNA (compound prepared by parallel synthesis technique)
Assay type: cell-based, HEK293
Please respond with reported IC50 for every item in the list.
Hey, just the number and the unit after it is fine.

// known answers, use as guide
>  <compound>
O=C(c1ccccc1)c1cccc(NC(=O)C2CCN(C(=O)Cn3c(=O)sc4ccc(Cl)cc43)CC2)c1

>  <IC50>
1.4 nM

$$$$
>  <compound>
O=C(Nc1ccc(Oc2ccccc2)cc1)C1CCN(C(=O)Cn2c(=O)sc3ccc(Cl)cc32)CC1

>  <IC50>
0.85 nM

$$$$
>  <compound>
Cc1cc(O)ccc1NC(=O)C1CCN(C(=O)Cn2c(=O)sc3ccc(Cl)cc32)CC1

>  <IC50>
1.4 nM

$$$$
>  <compound>
O=C(NCC(O)c1ccccc1)C1CCN(C(=O)Cn2c(=O)sc3ccc(Cl)cc32)CC1 (centres undefined)

>  <IC50>
1.1 nM

$$$$
>  <compound>
COc1ccc(NC(=O)C2CCN(C(=O)Cn3c(=O)sc4ccc(Cl)cc43)CC2)cn1

>  <IC50>
2.6 nM

$$$$
>  <compound>
O=C(Nc1ccc(CCO)cc1)C1CCN(C(=O)Cn2c(=O)sc3ccc(Cl)cc32)CC1

>  <IC50>
2.9 nM

$$$$
>  <compound>
CCCCCCCCCCNC(=O)C1CCN(C(=O)Cn2c(=O)sc3ccc(Cl)cc32)CC1

>  <IC50>
2.6 nM

$$$$
>  <compound>
O=C(Nc1cccc2ccccc12)C1CCN(C(=O)Cn2c(=O)sc3ccc(Cl)cc32)CC1

>  <IC50>
0.71 nM

$$$$

// moving on: another record for IC50
IC50 for Cc1ccc2nc(NC(=O)C3CCN(C(=O)Cn4c(=O)sc5ccc(Cl)cc54)CC3)sc2c1 is 2.8 nM

###

Target: Neuropeptide Y receptor type 5 (Homo sapiens, UniProt Q15761)
Sequence (Q15761 whole entry): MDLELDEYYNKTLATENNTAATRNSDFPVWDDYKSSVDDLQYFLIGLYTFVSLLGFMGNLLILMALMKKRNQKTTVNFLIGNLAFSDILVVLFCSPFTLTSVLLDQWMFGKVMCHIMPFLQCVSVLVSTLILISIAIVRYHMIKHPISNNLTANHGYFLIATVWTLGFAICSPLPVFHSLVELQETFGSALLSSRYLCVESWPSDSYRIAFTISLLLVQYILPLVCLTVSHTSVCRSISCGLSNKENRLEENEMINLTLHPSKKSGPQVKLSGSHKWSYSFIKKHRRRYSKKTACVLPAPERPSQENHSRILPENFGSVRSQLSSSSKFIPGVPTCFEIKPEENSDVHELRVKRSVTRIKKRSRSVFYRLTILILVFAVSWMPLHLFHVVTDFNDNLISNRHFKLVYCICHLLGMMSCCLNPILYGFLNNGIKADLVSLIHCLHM
Test: Inhibitory concentration of total specific binding of [125I]- -PYY to HEK 293 cells transfected with the Human NPY-Y5 cDNA (compound prepared by parallel synthesis technique)
Type: cell-based, HEK293
For each record, check the reported IC50: if it is below 1 nM write 1, else write 0.

Consider the worked cases shown below.
>  <test_smiles>
CC(=O)c1cccc(NC(=O)C2CCN(C(=O)Cn3c(=O)sc4ccc(Cl)cc43)CC2)c1

>  <label>
0

$$$$
>  <test_smiles>
O=C(Nc1nc2cc(Cl)ccc2o1)C1CCN(C(=O)Cn2c(=O)sc3ccc(Cl)cc32)CC1

>  <label>
0

$$$$
>  <test_smiles>
COc1ccc(CNC(=O)C2CCN(C(=O)Cn3c(=O)sc4ccc(Cl)cc43)CC2)cc1

>  <label>
0

$$$$
>  <test_smiles>
NS(=O)(=O)c1ccc(CCNC(=O)C2CCN(C(=O)Cn3c(=O)sc4ccc(Cl)cc43)CC2)cc1

>  <label>
0

$$$$

stdin: Bench note: check whether O=C(Nc1ccc(F)c(C(F)(F)F)c1)C1CCN(C(=O)Cn2c(=O)sc3ccc(Cl)cc32)CC1 shows IC50 below 1 nM
stdout: 1

All values here come from ChEMBL document CHEMBL1135282.
